Listing: pIC50 of selected molecules
- measured.target: porcine pancreatic lipase (Sus scrofa)
- Sequence (P00591 1-450): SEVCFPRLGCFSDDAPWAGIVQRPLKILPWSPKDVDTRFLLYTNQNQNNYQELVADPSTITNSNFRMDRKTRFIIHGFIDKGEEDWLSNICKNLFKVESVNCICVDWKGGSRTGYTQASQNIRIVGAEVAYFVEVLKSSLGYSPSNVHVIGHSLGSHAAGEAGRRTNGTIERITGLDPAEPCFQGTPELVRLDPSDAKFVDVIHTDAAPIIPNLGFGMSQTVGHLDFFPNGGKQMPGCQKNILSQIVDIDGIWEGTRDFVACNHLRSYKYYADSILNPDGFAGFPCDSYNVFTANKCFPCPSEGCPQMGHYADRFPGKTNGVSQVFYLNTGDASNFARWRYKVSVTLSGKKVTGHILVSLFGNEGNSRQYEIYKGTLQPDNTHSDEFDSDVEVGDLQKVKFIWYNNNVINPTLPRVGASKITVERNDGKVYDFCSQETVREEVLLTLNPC
Note on units: pIC50 is unitless, being -log10 of a concentration expressed in mol/L.

| molecule | pIC50 |
| --- | --- |
| O=C(O[C@@H]1Cc2c(O)cc(O)cc2O[C@H]1c1cc(O)c(O)c(O)c1)c1cc(O)c(O)c(O)c1 [(−)-gallocatechin 3-O-gallate (8), (−)-gallocatechin 3-O-gallate, reference compound] | 6.46 |

Task: Request - read-out pIC50 | tested on porcine pancreatic lipase (Sus scrofa) | molecule O=C(O[C@@H]1Cc2c(O)cc(O)c([C@@H]3c4c(O)cc(O)cc4O[C@H](c4cc(O)c(O)c(O)c4)[C@H]3O)c2O[C@@H]1c1cc(O)c(O)c(O)c1)c1cc(O)c(O)c(O)c1 [prodelphinidin B-4 3′-O-gallate (16), prodelphinidin B-4 3′-O-gallate]
Result: 6.65
